System: aggregated human αSyn
Test: Antibody-inducing ability in mice: ELISA antibody titer of immune serum with respect to aggregated human αSyn
Type: in vivo, mouse
Settings: Example 10, modified linker; mice; titer of AJ-p54 or AJ-p150 as control being 1 (logarithm)
Non-standard residues stand in square brackets, D forms with d. No end group written: not given here. Ahx = NCCCCCC(=O)O
assay endpoint: Antibody titer with respect to aggregated human αSyn, relative to control
In your answer, state the number alone without any accompanying words.

Some solved entries appear below for comparison.
ELKLIFLHRLKRLRKRLKRKPPDPDPEAYEMPSEE [AJ-PPDPDP-p150] :: 1.37
ELKLIFLHRLKRLRKRLKRKXKKDQLGKNE (ELKLIFLHRLKRLRKRLKRK[Ahx]KKDQLGKNE) [AJ-p54, AJ peptide linked to p54 via ε-Acp (X)] :: 1

get_value(item= ELKLIFLHRLKRLRKRLKRKϵKKKKKDQLGKNE [AJ-εKKK-p54] , readout=Antibody titer with respect to aggregated human αSyn, relative to control) returns 0.88

Recorded Antibody titer with respect to aggregated human αSyn, relative to control (substance ELKLIFLHRLKRLRKRLKRKαKEAYEMPSEE [AJ-αK-p150] ): 1.05

----------
System: aggregated human αSyn
Assay: Antibody-inducing ability in mice: ELISA antibody titer of immune serum with respect to aggregated human αSyn
Assay type: in vivo, mouse
Conditions: Example 4, balb/c mice
Procedure: Using the various AJ peptide-human αSyn peptide conjugates produced in Example 1, an antibody-inducing ability with respect to human αSyn in mice was evaluated. […] ELISA was performed by the following method. […] An equal volume of a TMB Stop Solution (KPL) was added to stop the reaction, and the absorbance at 450 nm was measured. […]
Non-standard residues stand in square brackets, D forms with d. No end group written: not given here. Ahx = NCCCCCC(=O)O
assay endpoint: Induction of the antibody to aggregated human αSyn (in words)

ELKLIFLHRLKRLRKRLKRKXKKDQLGKNE-C-KLH (not fully specified; C-terminal Cys linked to KLH) [AJ-p54-KLH, KLH-modified AJ-human αSyn peptide conjugate, KLH linked via cysteine to the C-terminal] :: induced
ELKLIFLHRLKRLRKRLKRKXKKDQLGKNE (ELKLIFLHRLKRLRKRLKRK[Ahx]KKDQLGKNE) [AJ-p54, AJ peptide linked to p54 via ε-Acp (X)] :: induced

----------
Test system: human αSyn
Assay: Antibody-inducing ability in mice: ELISA antibody titer of immune serum with respect to human αSyn
Format: in vivo, mouse
Settings: Example 4, balb/c mice
Protocol: Using the various AJ peptide-human αSyn peptide conjugates produced in Example 1, an antibody-inducing ability with respect to human αSyn in mice was evaluated. […] ELISA was performed by the following method. […] An equal volume of a TMB Stop Solution (KPL) was added to stop the reaction, and the absorbance at 450 nm was measured. […]
Non-standard residues stand in square brackets, D forms with d. No end group written: not given here. Ahx = NCCCCCC(=O)O
assay endpoint: Induction of the antibody to human αSyn (in words)

ELKLIFLHRLKRLRKRLKRKXKKDQLGKNE-C-KLH (not fully specified; C-terminal Cys linked to KLH) [AJ-p54-KLH, KLH-modified AJ-human αSyn peptide conjugate, KLH linked via cysteine to the C-terminal] :: induced
ELKLIFLHRLKRLRKRLKRKXKKDQLGKNE (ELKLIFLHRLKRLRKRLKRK[Ahx]KKDQLGKNE) [AJ-p54, AJ peptide linked to p54 via ε-Acp (X)] :: induced

----------
System: aggregated human αSyn
Assay: Antibody-inducing ability in mice: ELISA antibody titer of immune serum with respect to aggregated human αSyn
Type: in vivo, mouse
Conditions: Example 10, modified linker; mice; titer of AJ-p54 or AJ-p150 as control being 1 (logarithm)
Non-standard residues stand in square brackets, D forms with d. No end group written: not given here. Ahx = NCCCCCC(=O)O
assay endpoint: Antibody titer with respect to aggregated human αSyn, relative to control
I only need the number, thanks.

Examples with answers:
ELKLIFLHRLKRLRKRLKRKϵKKKKEAYEMPSEE [AJ-εKKKK-p150] :: 1.00
ELKLIFLHRLKRLRKRLKRKGGGGSKKDQLGKNE [AJ-GGGGS-p54] :: 1.02

Now for a further substance.
Record for ELKLIFLHRLKRLRKRLKRKXEAYEMPSEE (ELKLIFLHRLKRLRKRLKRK[Ahx]EAYEMPSEE) [AJ-p150, AJ peptide linked to p150 via ε-Acp (X)] under target or system aggregated human αSyn: Antibody titer with respect to aggregated human αSyn, relative to control reported as 1

----------
Test system: human αSyn
Assay: Antibody-inducing ability in mice: ELISA antibody titer of immune serum with respect to human αSyn
Assay type: in vivo, mouse
Set-up: key: log titer relative to control conjugate (control = 1)
Conditions: Example 10, modified linker; mice; titer of AJ-p54 or AJ-p150 as control being 1 (logarithm)
Non-standard residues stand in square brackets, D forms with d. No end group written: not given here. Ahx = NCCCCCC(=O)O
assay endpoint: Antibody titer with respect to human αSyn, relative to control
Give the figure only, with no unit attached.

Look over these answered cases.
ELKLIFLHRLKRLRKRLKRKGKKDQLGKNE [AJ-G-p54] :: 0.89
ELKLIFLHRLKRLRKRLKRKϵKKKKKKDQLGKNE [AJ-εKKKK-p54] :: 0.77
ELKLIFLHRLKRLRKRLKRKαKEAYEMPSEE [AJ-αK-p150] :: 0.95
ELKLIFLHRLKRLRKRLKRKαKKKDQLGKNE [AJ-αK-p54] :: 0.99
ELKLIFLHRLKRLRKRLKRKGGGGSKKDQLGKNE [AJ-GGGGS-p54] :: 1.05

# Antibody titer with respect to human αSyn, relative to control (substance: ELKLIFLHRLKRLRKRLKRKXEAYEMPSEE (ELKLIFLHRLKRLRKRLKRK[Ahx]EAYEMPSEE) [AJ-p150, AJ peptide linked to p150 via ε-Acp (X)] ) is 1

The substance identified as ELKLIFLHRLKRLRKRLKRKDDAKKKKDQLGKNE [AJ-DDAKK-p54] registered its Antibody titer with respect to human αSyn, relative to control at 1.03

----------
Some substances, each annotated with its measured Antibody titer with respect to aggregated human αSyn, relative to control.
Tested on: aggregated human αSyn
Experiment: Antibody-inducing ability in mice: ELISA antibody titer of immune serum with respect to aggregated human αSyn
Type: in vivo, mouse
Settings: Example 10, modified linker; mice; titer of AJ-p54 or AJ-p150 as control being 1 (logarithm)
Form: value (number only, do not type unit).

Antibody titer with respect to aggregated human αSyn, relative to control recorded for this substance, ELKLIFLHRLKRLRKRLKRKαKKKDQLGKNE [AJ-αK-p54] , is 0.92

Input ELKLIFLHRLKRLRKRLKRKϵKKKDQLGKNE [AJ-εK-p54] . Output Antibody titer with respect to aggregated human αSyn, relative to control: 0.81

----------
Test system: human αSyn
Assay: Antibody-inducing ability in mice: ELISA antibody titer of immune serum with respect to human αSyn
Type: in vivo, mouse
Parameters: key: log titer relative to control conjugate (control = 1)
Settings: Example 10, modified linker; mice; titer of AJ-p54 or AJ-p150 as control being 1 (logarithm)
Description: Using the various AJ peptide-human αSyn peptide conjugates produced in Example 1, an antibody-inducing ability with respect to human αSyn in mice was evaluated. […] ELISA was performed by the following method. […] An equal volume of a TMB Stop Solution (KPL) was added to stop the reaction, and the absorbance at 450 nm was measured. […]
Note to self: Antibody titer with respect to human αSyn, relative to control under 1 means true (1), ties and anything higher get false (0).

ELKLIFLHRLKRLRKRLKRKϵKKKDQLGKNE [AJ-εK-p54] :: true (1)
ELKLIFLHRLKRLRKRLKRKEAAAKKKDQLGKNE [AJ-EAAAK-p54] :: true (1)
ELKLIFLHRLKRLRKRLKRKϵKKKKEAYEMPSEE [AJ-εKKKK-p150] :: true (1)
ELKLIFLHRLKRLRKRLKRKDDAKKEAYEMPSEE [AJ-DDAKK-p150] :: false (0)
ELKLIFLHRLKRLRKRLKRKϵKEAYEMPSEE [AJ-εK-p150] :: true (1)
ELKLIFLHRLKRLRKRLKRKGGGGSEAYEMPSEE [AJ-GGGGS-p150] :: false (0)
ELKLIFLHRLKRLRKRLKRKϵKKKEAYEMPSEE [AJ-εKKK-p150] :: true (1)
ELKLIFLHRLKRLRKRLKRKEAAAKEAYEMPSEE [AJ-EAAAK-p150] :: false (0)
ELKLIFLHRLKRLRKRLKRKGEAYEMPSEE [AJ-G-p150] :: true (1)
ELKLIFLHRLKRLRKRLKRKPPDPDPKKDQLGKNE [AJ-PPDPDP-p54] :: true (1)

Field: below-cutoff. Rule: recorded Antibody titer with respect to human αSyn, relative to control strictly less than 1. Subject: ELKLIFLHRLKRLRKRLKRKPPDPDPEAYEMPSEE [AJ-PPDPDP-p150]
false (0)
